These data points were gathered from patent US20240301031A1.

# system tested: T1, human BAFF (10056-HNCH, Sino biological) (human, UniProt Q9Y275 134-285)
# T1 construct: Bought protein
# experimental details: ELISA, BAFF coated, fusion protein titrated
measurement name: EC50 (pM)
Report as a plain number; the unit pM is understood.

**Query** Return reported EC50; argument: TACI-9-13Fc (Fc fusion, two identical polypeptides) STSCRKEQGKFYDHLLRDCISCASICGQHPKQCAYYCENKLDKTHTCPPCPAPEAEGAPSVFLFPPKPKDTLMISRTPEVTCVVVDVSHEDPEVKFNWYVDGVEVHNAKTKPREEQYNSTYRVVSVLTVLHQDWLNGKEYKCKVSNKALPSSIEKTISKAKGQPREPQVYTLPPSRDELTKNQVSLTCLVKGFYPSDIAVEWESNGQPENNYKTTPPVLDSDGSFFLYSKLTVDKSRWQQGNVFSCSVMHEALHNHYTQKSLSLSPGK
**Result** 433

**Query** Return reported EC50; argument: TACI-9-5Fc (Fc fusion, two identical polypeptides) SLSCRKEQGEFYDHLLRDCISCASICGQHPKQCAYFCENKLDKTHTCPPCPAPEAEGAPSVFLFPPKPKDTLMISRTPEVTCVVVDVSHEDPEVKFNWYVDGVEVHNAKTKPREEQYNSTYRVVSVLTVLHQDWLNGKEYKCKVSNKALPSSIEKTISKAKGQPREPQVYTLPPSRDELTKNQVSLTCLVKGFYPSDIAVEWESNGQPENNYKTTPPVLDSDGSFFLYSKLTVDKSRWQQGNVFSCSVMHEALHNHYTQKSLSLSPGK
**Result** 146

**Query** Return reported EC50; argument: TACI-9-11Fc (Fc fusion, two identical polypeptides) SLSCSEEQGEFYDHLLRDCISCASICGQHPKQCAYFCENKLDKTHTCPPCPAPEAEGAPSVFLFPPKPKDTLMISRTPEVTCVVVDVSHEDPEVKFNWYVDGVEVHNAKTKPREEQYNSTYRVVSVLTVLHQDWLNGKEYKCKVSNKALPSSIEKTISKAKGQPREPQVYTLPPSRDELTKNQVSLTCLVKGFYPSDIAVEWESNGQPENNYKTTPPVLDSDGSFFLYSKLTVDKSRWQQGNVFSCSVMHEALHNHYTQKSLSLSPGK
**Result** 195
